Measured koff accompanies every entry in the list below.
- target-entity: T1, Recombinant WEEV glycoprotein (E2/E3E2) (Western equine encephalitis virus, …, UniProt P13897)
- T1 construct: source: bought: IBT Bioservices
- protocol-notes: SPR; ProteOn XPR36; […] (20 µg/mL in 10 mM sodium acetate pH 5.0); […]
- condition-notes: both partners purified
Report the figure in s⁻¹ without appending any unit label.

# binder, unit-of-measure, koff
data = [
    ("anti-WEEV E2/E3E2 single-domain antibody WE10 (VHH, also called Bt-WE10) VHH: DVQLQASGGGLVQAGGSLRLSCVASGLTFVNYAIDWYRQAPGKEREVVAGMWNDGVAYYGDFVKGRFTIARDNAKNTVYLQMNNLKPEDTAVYFCGARSRPNLQYDYWGQGTQVTVSS", "s⁻¹", 0.00083),
    ("anti-WEEV E2/E3E2 single-domain antibody WF4 (VHH, also called Bt-WF4) VHH: DVQLQASGGGLVQAGGSLRLSCAVSDNTTSLNGMGYYRGPPGKQREFVAYARNNGAPKYADSVMGRFTISVDNSKATVYLQMNNLGPEDTALYYCYAPDRWHTYWAGGTQVTVSS", "s⁻¹", 0.0015),
    ("anti-WEEV E2/E3E2 single-domain antibody WD11f (VHH, also called Bt-WD11f) VHH: EVQLQASGGGLVQSGGSLRLSCAGSGGTESSYRMAWFRQAPGTERVFVARVSDGGGSILYADSAKGRFTISRDNGKNTIHLQMFSLKPEDTAVYFCAAAFSWMPPSTVAADYEYWGQGTQVTVSS", "s⁻¹", 0.53),
    ("anti-WEEV E2/E3E2 single-domain antibody WH11 (VHH, also called Bt-WH11) VHH: EVQLQASGGGLVQAGGSLRLTCVASGLTFVNYALDWYRQAPGKERELVAGMWSDGVAYYGDFVKGRFTMSRDNAKNMVYLQMNSLEPEDTAVYSCAARSRPTTQYDYWGQGTQVTVSS", "s⁻¹", 0.0033),
    ("anti-WEEV E2/E3E2 single-domain antibody WC10 (VHH, also called Bt-WC10) VHH: DVQLQASGGGLVEAGGSLRLSCTTSGISVRNSDMGWYRQGPGKQRELIARSSRGGATNYLDSVTGRFTISRDNIKNTVFLQMNSLKPEDTAVYYCNTNPINHWNVWGQGTQVTVSS", "s⁻¹", 0.85),
]

Task item: Fill in reported koff for this entry: anti-WEEV E2/E3E2 single-domain antibody WB9 (VHH, also called Bt-WB9) VHH: DVQLQASGGGLVQAGGSLRLSCATSGISVSNSDMGWYRQGPGKQRELVARNSRAGTTNYLDSVKGRFTISRDNAKNMVFLQMNSLKLEDTAVYYCNTNPINRWNIWGQGAQVTVSS
Reply: 0.0029
